// data source = patent US20040019018A1

Target: β-PKC (Homo sapiens, UniProt P05771)
Sequence (P05771 whole entry): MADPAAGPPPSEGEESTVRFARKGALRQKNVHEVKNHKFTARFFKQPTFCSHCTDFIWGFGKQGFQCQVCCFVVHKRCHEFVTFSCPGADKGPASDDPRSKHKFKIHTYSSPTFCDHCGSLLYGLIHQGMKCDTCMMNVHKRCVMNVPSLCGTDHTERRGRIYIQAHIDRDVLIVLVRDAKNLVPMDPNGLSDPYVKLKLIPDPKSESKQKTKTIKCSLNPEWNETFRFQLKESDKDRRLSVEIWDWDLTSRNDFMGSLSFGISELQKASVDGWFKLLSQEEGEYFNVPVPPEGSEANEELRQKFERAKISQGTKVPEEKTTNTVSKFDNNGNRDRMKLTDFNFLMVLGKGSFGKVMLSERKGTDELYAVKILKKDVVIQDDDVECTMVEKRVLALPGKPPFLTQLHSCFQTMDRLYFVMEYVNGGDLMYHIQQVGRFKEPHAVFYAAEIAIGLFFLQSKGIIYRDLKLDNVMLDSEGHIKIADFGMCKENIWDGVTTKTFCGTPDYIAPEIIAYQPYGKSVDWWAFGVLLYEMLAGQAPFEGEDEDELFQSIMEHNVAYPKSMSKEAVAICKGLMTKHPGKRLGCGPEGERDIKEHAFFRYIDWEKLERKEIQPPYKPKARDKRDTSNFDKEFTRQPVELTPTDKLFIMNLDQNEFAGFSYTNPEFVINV
Test: [3H]PDBu displacement from recombinant PKC isozyme (baculovirus)
Details: [3H]PDBu competition
pKi: −log10 of the molar value.
endpoint: pKi

>>> print(df.to_string())
                               smiles_input  prefix_operator  readout_number
0  CCCCCCCCCCCC(=O)Oc1ccc2c(c1)[C@@](C)(C(C)C)[C@H]1C(=O)N[C@H](CO)[C@@H]21                =            5.98
1  CCCCCCCCCCCC(=O)Oc1ccc2c(c1)[C@](C)(C(C)C)[C@H]1C(=O)N[C@H](CO)[C@@H]21                =            6.23
2  CCCCCCCCCCCC(=O)Oc1cc2c(cc1C(C)=O)[C@@H]1[C@@H](CO)NC(=O)[C@@H]1[C@@]2(C)C(C)C                <            5.00
3  CCCCCCCCCCCC(=O)Oc1cc2c(cc1C(C)=O)[C@@H]1[C@@H](CO)NC(=O)[C@@H]1[C@]2(C)C(C)C                =            5.07
4  CCCCCCCCCCCC(=O)Oc1cc2c(cc1Br)[C@@H]1[C@@H](CO)NC(=O)[C@@H]1[C@]2(C)C(C)C                =            5.79

====

Biological target: ε-PKC (Homo sapiens, UniProt Q02156)
Sequence (Q02156 whole entry): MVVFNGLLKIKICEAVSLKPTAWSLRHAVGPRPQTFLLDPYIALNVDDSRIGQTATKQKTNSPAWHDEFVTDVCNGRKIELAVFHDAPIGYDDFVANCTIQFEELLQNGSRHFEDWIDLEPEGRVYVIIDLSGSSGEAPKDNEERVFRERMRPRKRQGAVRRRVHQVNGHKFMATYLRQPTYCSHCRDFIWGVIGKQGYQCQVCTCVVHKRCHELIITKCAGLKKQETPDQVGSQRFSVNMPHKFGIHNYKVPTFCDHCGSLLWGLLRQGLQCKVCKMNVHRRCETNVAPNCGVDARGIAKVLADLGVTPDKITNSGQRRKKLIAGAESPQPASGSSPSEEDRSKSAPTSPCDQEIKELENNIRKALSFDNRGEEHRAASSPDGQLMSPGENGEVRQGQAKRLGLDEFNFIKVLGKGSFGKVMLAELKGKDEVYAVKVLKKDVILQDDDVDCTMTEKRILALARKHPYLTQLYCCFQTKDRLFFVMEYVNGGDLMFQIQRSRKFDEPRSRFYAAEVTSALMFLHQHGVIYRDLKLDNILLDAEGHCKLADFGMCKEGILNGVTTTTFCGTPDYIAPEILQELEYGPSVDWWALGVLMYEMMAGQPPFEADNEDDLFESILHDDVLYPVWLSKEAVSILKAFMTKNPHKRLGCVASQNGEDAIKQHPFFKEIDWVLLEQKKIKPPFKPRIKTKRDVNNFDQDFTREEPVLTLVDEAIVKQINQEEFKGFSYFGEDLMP
Assay: [3H]PDBu displacement from recombinant PKC isozyme (baculovirus)
Conditions: [3H]PDBu competition
The compounds listed here are annotated with their Ki.
endpoint: Ki (nM)

>>> print(df.to_string())
                               smiles_input  result_units  prefix_operator  readout_number
0  CCCCCCCCCCCC(=O)Oc1cc2c(cc1Br)[C@@H]1[C@@H](CO)NC(=O)[C@@H]1[C@]2(C)C(C)C            nM                =            1300
1  CCCCCCCCCCCC(=O)Oc1cc2c(cc1C(C)=O)[C@@H]1[C@@H](CO)NC(=O)[C@@H]1[C@]2(C)C(C)C            nM                =            5100
2  CCCCCCCCCCCC(=O)Oc1cc2c(cc1C(C)=O)[C@@H]1[C@@H](CO)NC(=O)[C@@H]1[C@@]2(C)C(C)C            nM                >           10000
3  CCCCCCCCCCCC(=O)Oc1ccc2c(c1)[C@@](C)(C(C)C)[C@H]1C(=O)N[C@H](CO)[C@@H]21            nM                =             228
4  CCCCCCCCCCCC(=O)Oc1ccc2c(c1)[C@](C)(C(C)C)[C@H]1C(=O)N[C@H](CO)[C@@H]21            nM                =             515

====

Biological target: α-PKC (Homo sapiens)
Assay: [3H]PDBu displacement from recombinant PKC isozyme (baculovirus)
Details: [3H]PDBu competition
Method: The ability of representative compounds of the invention to bind specific isozymes of PKC was determined using an assay (Example 13) in which displacement of [20-^3H]phorbol -12,13-dibutyrate ([^3H]PDBu) from either recombinant PKC isozymes prepared in a Baculovirus system, or unresolved mixture of isozymes of PKC isolated from whole brain extracts, was used. These procedures are described below. […] (See the key that follows) Analysis of [20-^3H]phorbol 12,13-dibutyrate binding to PKC. […]
pKi: −log10 of the molar value.
endpoint: pKi

                                   compound          study_system  prefix_operator  readout_number
0  CCCCCCCCCCCC(=O)Oc1cc2c(cc1Br)[C@@H]1[C@@H](CO)NC(=O)[C@@H]1[C@]2(C)C(C)C  α-PKC (Homo sapiens)                =            5.53
1  CCCCCCCCCCCC(=O)Oc1ccc2c(c1)[C@](C)(C(C)C)[C@H]1C(=O)N[C@H](CO)[C@@H]21  α-PKC (Homo sapiens)                =            6.40
2  CCCCCCCCC#Cc1ccc2c(c1)C(C)(C(C)C)C1C(=O)NC(CO)C21 (stereo not drawn)  α-PKC (Homo sapiens)                =            6.24
3  CCCCCCCCCCCC(=O)Oc1cc2c(cc1C(C)=O)[C@@H]1[C@@H](CO)NC(=O)[C@@H]1[C@]2(C)C(C)C  α-PKC (Homo sapiens)                =            5.65
4  CCCCCCCCCCCC(=O)Oc1ccc2c(c1)[C@@](C)(C(C)C)[C@H]1C(=O)N[C@H](CO)[C@@H]21  α-PKC (Homo sapiens)                =            6.17
5  CCCCCCCCCCCC(=O)Oc1cc2c(cc1C(C)=O)[C@@H]1[C@@H](CO)NC(=O)[C@@H]1[C@@]2(C)C(C)C  α-PKC (Homo sapiens)                <            5.00

====

Target: γ-PKC (Homo sapiens, UniProt P05129)
Experiment: [3H]PDBu displacement from recombinant PKC isozyme (baculovirus)
Details: [3H]PDBu competition
The compounds listed here are annotated with their Ki.
endpoint: Ki (nM)

>>> print(df.to_string())
                                   compound  endpoint  prefix_operator  readout_number
0  CCCCCCCCC#Cc1ccc2c(c1)C(C)(C(C)C)C1C(=O)NC(CO)C21 (stereo not drawn)        Ki                =             279
1  CCCCCCCCCCCC(=O)Oc1ccc2c(c1)[C@](C)(C(C)C)[C@H]1C(=O)N[C@H](CO)[C@@H]21        Ki                =             209
2  CCCCCCCCCCCC(=O)Oc1cc2c(cc1C(C)=O)[C@@H]1[C@@H](CO)NC(=O)[C@@H]1[C@@]2(C)C(C)C        Ki                >           10000
3  CCCCCCCCCCCC(=O)Oc1cc2c(cc1C(C)=O)[C@@H]1[C@@H](CO)NC(=O)[C@@H]1[C@]2(C)C(C)C        Ki                =            3650
4  CCCCCCCCCCCC(=O)Oc1cc2c(cc1Br)[C@@H]1[C@@H](CO)NC(=O)[C@@H]1[C@]2(C)C(C)C        Ki                =            1230
5  CCCCCCCCCCCC(=O)Oc1ccc2c(c1)[C@@](C)(C(C)C)[C@H]1C(=O)N[C@H](CO)[C@@H]21        Ki                =             327

====

Biological target: whole brain PKC
Assay: [3H]PDBu displacement from unresolved mixture of PKC isozymes from whole brain extracts
Conditions: [3H]PDBu competition
pKi: −log10 of the molar value.
endpoint: pKi

>>> print(df.to_string())
                                   compound  result
0  CCCCCCCCC#Cc1ccc2c(c1)C(C)(C(C)C)C1C(=O)NC(CO)C21 (centres unmarked) [Compound 1]  < 5.00
1  CCCCCCCCCCCC(=O)Oc1ccc2c(c1)[C@](C)(C(C)C)[C@H]1C(=O)N[C@H](CO)[C@@H]21 [Compound 2]  < 5.00

====

Target: δ-PKC (Homo sapiens)
Sequence (Q05655 whole entry): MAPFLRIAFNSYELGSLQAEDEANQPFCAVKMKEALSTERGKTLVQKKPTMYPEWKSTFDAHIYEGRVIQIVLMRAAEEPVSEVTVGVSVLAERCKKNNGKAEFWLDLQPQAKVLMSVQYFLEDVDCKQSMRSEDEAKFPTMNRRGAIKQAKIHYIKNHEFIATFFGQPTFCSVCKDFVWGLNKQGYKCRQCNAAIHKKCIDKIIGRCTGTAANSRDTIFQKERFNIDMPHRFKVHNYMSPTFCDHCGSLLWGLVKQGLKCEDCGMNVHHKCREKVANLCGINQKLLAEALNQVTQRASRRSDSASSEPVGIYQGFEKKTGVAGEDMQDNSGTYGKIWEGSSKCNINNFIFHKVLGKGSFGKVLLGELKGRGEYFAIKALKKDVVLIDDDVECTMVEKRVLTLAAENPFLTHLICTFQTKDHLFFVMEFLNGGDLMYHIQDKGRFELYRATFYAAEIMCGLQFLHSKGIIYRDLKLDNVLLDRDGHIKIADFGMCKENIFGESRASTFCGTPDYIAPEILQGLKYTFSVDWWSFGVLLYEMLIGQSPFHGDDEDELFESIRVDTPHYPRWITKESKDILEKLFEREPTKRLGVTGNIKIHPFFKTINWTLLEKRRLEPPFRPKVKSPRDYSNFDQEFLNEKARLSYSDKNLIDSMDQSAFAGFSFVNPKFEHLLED
Assay: [3H]PDBu displacement from recombinant PKC isozyme (baculovirus)
Details: [3H]PDBu competition
pKi: −log10 of the molar value.
endpoint: pKi

In [3]: df
Out[3]:
                                   compound  endpoint  readout_number
0  CCCCCCCCC#Cc1ccc2c(c1)C(C)(C(C)C)C1C(=O)NC(CO)C21 (centres unmarked)       pKi            5.79
1  CCCCCCCCCCCC(=O)Oc1cc2c(cc1Br)[C@@H]1[C@@H](CO)NC(=O)[C@@H]1[C@]2(C)C(C)C       pKi            6.21
2  CCCCCCCCCCCC(=O)Oc1ccc2c(c1)[C@@](C)(C(C)C)[C@H]1C(=O)N[C@H](CO)[C@@H]21       pKi            6.82
3  CCCCCCCCCCCC(=O)Oc1cc2c(cc1C(C)=O)[C@@H]1[C@@H](CO)NC(=O)[C@@H]1[C@]2(C)C(C)C       pKi            5.36
4  CCCCCCCCCCCC(=O)Oc1ccc2c(c1)[C@](C)(C(C)C)[C@H]1C(=O)N[C@H](CO)[C@@H]21       pKi            5.86
